Tested on: NCI-H23 lung
TEST_DETAILS: NCI tumour cell line growth inhibition, 48 h; in the data active = GI50 below about 0.43 µM; inactive = the rest
Give your call using only these classes: t = active, f = inactive

Record excerpt, results attached:
COMPOUND: COC(=O)c1c(C(=O)O)c(-c2ccccc2)c(-c2ccccc2)c(-c2ccccc2)c1-c1ccccc1
CLASS_LABEL: f
--
COMPOUND: C[C@]12CCC3c4ccc(O)cc4CCC3C1CC[C@@H]2NC(=O)/C=C/c1ccc(O)c(O)c1 (stereo partly specified)
CLASS_LABEL: f
--
COMPOUND: C=C(CN1CCc2ccccc2C1)c1ccc(CCCC(=O)Nc2ccccc2N)cc1
CLASS_LABEL: f
--
COMPOUND: COc1ccc(C(=O)c2ccccc2)c(O)c1
CLASS_LABEL: f
--
COMPOUND: C=C(CN1CCN(c2ccccn2)CC1)c1ccc(C(=O)Nc2ccccc2N)cc1
CLASS_LABEL: f

Prompt: Assay result, entry CN(Cc1cnc2nc(N)nc(N)c2n1)c1c(Cl)cc(C(=O)NC(CCC(=O)O)C(=O)O)cc1Cl (stereo unspecified) — outcome?
Response: t

Prompt: Assay result, entry CC(=O)c1nc(-c2ccc(C[C@@H](CNC(=O)CN(C)C)NC(=O)c3ccc(OC(C)C)c(Cl)c3)cc2)cn1C — outcome?
Response: t

###

Test system: SK-MEL-5 melanoma
TEST_DETAILS: NCI tumour cell line growth inhibition, 48 h
This listing pairs compounds with measured TGI.
State just the number; it will be interpreted in µM.

COMPOUND: Cc1cc(O)c2c(c1)OC1(C)CCC3C(C)(C)CCCC34COC2C14 (centres undefined)
READOUT_TYPE: TGI
VALUE_UNITS: µM
REPORTED_RESULT: 27.5

Shift focus to the following entry.
# TGI of COc1cc(C=NCC(=O)CSC(c2ccccc2)c2ccccc2)ccc1O = 18.2

###

Tested on: COLO 205 colon
TEST_DETAILS: NCI tumour cell line growth inhibition, 48 h
READOUT_TYPE: TGI

Solved cases (8 shown):
COMPOUND: COc1ccc(N=C(C)C(C)=Nc2ccc(OC)cc2)cc1
TGI: 37.1 µM
--
COMPOUND: C/C(CC(O)(C(F)(F)F)C(F)(F)F)=N\O
TGI: > 10 µM
--
COMPOUND: CC(C)(C)N=C1C(=O)C2(C)CCC1C2(C)C (stereo unspecified)
TGI: > 100 µM
--
COMPOUND: COC(=O)c1ccc(C)cc1C1CN=NC12Cc1cccc(C)c1C2=O (stereo unspecified)
TGI: > 100 µM
--
COMPOUND: COc1ccc(-c2nc(-c3cnccn3)n(C/C=C/c3ccccc3)n2)cc1
TGI: > 100 µM
--
COMPOUND: C[C@]12CCC3c4ccc(O)cc4CCC3C1CC[C@@H]2NC(=O)/C=C/c1ccc(O)c(O)c1 (stereo partly specified)
TGI: 32.9 µM
--
COMPOUND: Cc1cc(O)c2c(c1)OC1(C)CCC3C(C)(C)CCCC34COC2C14 (stereo unspecified)
TGI: 29.9 µM
--
COMPOUND: NCCCNCCSP(=O)(O)O
TGI: > 657 µM

# TGI of C/C(=C\c1ccccc1)C(=O)c1c(C)cc(C)cc1C = > 100 µM

# TGI of COc1ccc(-c2csc3c2[N+]2(C)C=CC=C2C3N2CCCC2)cc1 (stereo unspecified) = 42.6 µM

# TGI of Cc1ccc(N=Nc2c(O)ccc3ccccc23)c(C)c1 = > 100 µM

###

Test system: K-562 leukemia
TEST_DETAILS: NCI tumour cell line growth inhibition, 48 h
This listing pairs compounds with measured GI50.

Solved cases (4 shown):
LINE_NOTATION: CC(C)(O)c1cc(Nc2cc(Oc3cn(C4CC4)nc3C3CCOCC3)ccn2)ccn1
GI50: 27.5 µM

LINE_NOTATION: O=C1c2ccccc2-c2c1c1ccccc1c(=O)n2CCNCCNCCNCCNCCn1c2c(c3ccccc3c1=O)C(=O)c1ccccc1-2
GI50: 0.0462 µM

LINE_NOTATION: C/C(=N\NC(=S)N1CCCC1)c1ccccn1
GI50: < 0.01 µM

LINE_NOTATION: Cn1cc(-c2csc(-c3ccc(Cl)cc3)n2)c2cccnc21
GI50: 12.9 µM

Shift focus to the following entry.
# GI50 of CN(C)CCN=c1nc2c(c(N)n1-c1ccccc1)c(=S)n(-c1ccccc1)c(=S)n2-c1ccccc1 = 3.6 µM

###

System: HCC-2998 colon
TEST_DETAILS: NCI tumour cell line growth inhibition, 48 h
READOUT_TYPE: TGI

LINE_NOTATION: CCOC(=N)CC(=O)Nc1ccccc1CC
TGI: > 100 µM
//
LINE_NOTATION: Clc1cc(Cl)nc(Nc2ccc3c(c2)CCC3)n1
TGI: 30.4 µM
//
LINE_NOTATION: COC(=O)CCCc1nc2ccccc2nc1N=Nc1ccccc1
TGI: > 100 µM
//
LINE_NOTATION: C(=Nc1ccc(-c2nc3ccccc3s2)cc1)c1cccs1
TGI: > 100 µM
//
LINE_NOTATION: CCOc1ccc2cc(-c3nn(CC4CCN(C)CC4)c4ncnc(N)c34)ccc2c1
TGI: 32 µM

# TGI of O=Cn1c2ccccc2c2ccccc21 = > 100 µM

###

This listing pairs molecules with measured TGI.
System: SK-MEL-28 melanoma
TEST_DETAILS: NCI tumour cell line growth inhibition, 48 h

MOLECULE: NC(=S)c1cccc(C2Nc3ccccc3O2)c1 (configuration not stated)
TGI: > 100 µM
//
MOLECULE: BrCc1ccc2ccc3ccc(CBr)nc3c2n1
TGI: 6.02 µM
//
MOLECULE: C=C(c1ccccc1)c1cc2c(=O)[nH]ccc2n1C
TGI: > 100 µM
//
MOLECULE: C=CC(C)(C)/C(=C\CO[Si](C(C)C)(C(C)C)C(C)C)C(=O)N(C)c1ccccc1I
TGI: 29.4 µM
//
MOLECULE: CC(=O)c1c(-c2ccco2)c(C#N)c(=S)n(C2OC(CO)C(O)C(O)C2O)c1C (configuration not stated)
TGI: > 100 µM
//
MOLECULE: O=C(NCCCN1CCN(CCCNC(=O)Nc2cc(Cl)ccc2Cl)CC1)Nc1cc(Cl)ccc1Cl
TGI: > 100 µM
//
MOLECULE: O=c1cc(-c2ccccc2)oc2cc(OCCCCCCCCCCOc3ccc4c(=O)cc(-c5ccccc5)oc4c3)ccc12
TGI: > 100 µM
//
MOLECULE: Nc1ccccc1SC(/C=C/NNC1=NC(c2ccccc2)C(c2ccccc2)=NN1)c1ccccc1 (configuration not stated)
TGI: 27 µM

# TGI of N.N.N.N.O=S([O-])[O-].[Co+3].[N-]=[N+]=[N-] = > 100 µM

# TGI of O=C1C(=O)N(c2cc(Cl)ccc2Cl)C(=O)C(=O)C1c1nc2ccccc2s1 = > 100 µM

# TGI of COc1ccc(C2C3=C(COC3=O)Oc3cc4c(cc32)OCO4)cc1OC (configuration not stated) = > 100 µM

# TGI of C=C(CN1CCN(c2ccccn2)CC1)c1ccc(C(=O)Nc2ccccc2N)cc1 = > 50 µM

###

Tested on: MCF7 breast
TEST_DETAILS: NCI tumour cell line growth inhibition, 48 h; in the data active means GI50 below about 0.43 µM; inactive means the rest
Give your call using only these classes: active, inactive

LINE_NOTATION: COc1ccc(/C=C(\C#N)c2cc(OC)c(OC)c(OC)c2)cc1
CLASS_LABEL: active

Prompt: Assay result, entry CCCCS(=O)(=O)c1cc(Nc2ccc(O)c3c2C(=O)c2ccccc2C3=O)ccc1C — outcome?
Response: inactive

Prompt: Assay result, entry Cc1nc(C(=O)OCc2ccccc2)cc(OCc2ccccc2)c1C — outcome?
Response: inactive

###

This listing pairs compounds with measured TGI.
System: SNB-19 CNS
TEST_DETAILS: NCI tumour cell line growth inhibition, 48 h

LINE_NOTATION: CCOC(=O)c1c(SC(=O)c2ccc(Cl)cc2)n(-c2ccccc2)c(=S)n(-c2ccccc2)c1=O
SUBJECT_OF_TEST: SNB-19 CNS
TGI: > 100 µM
//
LINE_NOTATION: Cc1cc(C)nc(NC(=O)COc2ccc(Cl)cc2)c1
SUBJECT_OF_TEST: SNB-19 CNS
TGI: > 100 µM
//
LINE_NOTATION: O=C(NCc1cn(Cc2cccc(Oc3ccccc3)c2)nn1)c1cccnc1NCc1ccc(Cl)cc1
SUBJECT_OF_TEST: SNB-19 CNS
TGI: > 100 µM

# TGI of COc1ccc(N=c2nc3sc4cc(Cl)ccc4n3c(N)c2C#N)cc1 = > 100 µM

# TGI of CC(C)(C)OC(=O)NCC(c1c[nH]c2ccccc12)c1c[nH]c2ccccc12 = 31.1 µM

###

Test system: SR leukemia
TEST_DETAILS: NCI tumour cell line growth inhibition, 48 h; in the data active = GI50 below about 0.43 µM; inactive = the rest
Give your call using only these classes: 1 (yes) (active), 0 (no) (inactive)

Record excerpt, results attached:
COMPOUND: S=C(Nc1ccc(-c2nc3ccccc3s2)cc1)Nc1ccc(-c2nc3ccccc3s2)cc1
CLASS_LABEL: 0 (no)
--
COMPOUND: COc1ccc(N=c2nc3sc4cc(Cl)ccc4n3c(N)c2C#N)cc1
CLASS_LABEL: 0 (no)
--
COMPOUND: O=C(OCC1=CC(=O)c2ccccc2C1=O)c1ccccc1
CLASS_LABEL: 0 (no)
--
COMPOUND: N#C/C(=C/C=C/c1cccc(Cl)c1)S(=O)c1ccccc1 (stereo unspecified)
CLASS_LABEL: 1 (yes)
--
COMPOUND: COc1cc(C2CC(c3ccc(Cl)cc3)=NN2C(C)=O)ccc1Oc1ccnc2cc(Cl)ccc12 (stereo unspecified)
CLASS_LABEL: 0 (no)

Next item in the queue.
Prompt: Assay result, entry CC(=O)c1nc(-c2ccc(C[C@@H](CNC(=O)CN(C)C)NC(=O)c3ccc(OC(C)C)c(Cl)c3)cc2)cn1C — outcome?
Response: 1 (yes)
